MEASUREMENT TARGET: T1, recombinant hAng2 (C-His, R&D Systems) (human, UniProt O15123 19-496)
T1 construct: Bought protein captured on an anti-His chip; not shown: C-terminal His tag
T1 sequence: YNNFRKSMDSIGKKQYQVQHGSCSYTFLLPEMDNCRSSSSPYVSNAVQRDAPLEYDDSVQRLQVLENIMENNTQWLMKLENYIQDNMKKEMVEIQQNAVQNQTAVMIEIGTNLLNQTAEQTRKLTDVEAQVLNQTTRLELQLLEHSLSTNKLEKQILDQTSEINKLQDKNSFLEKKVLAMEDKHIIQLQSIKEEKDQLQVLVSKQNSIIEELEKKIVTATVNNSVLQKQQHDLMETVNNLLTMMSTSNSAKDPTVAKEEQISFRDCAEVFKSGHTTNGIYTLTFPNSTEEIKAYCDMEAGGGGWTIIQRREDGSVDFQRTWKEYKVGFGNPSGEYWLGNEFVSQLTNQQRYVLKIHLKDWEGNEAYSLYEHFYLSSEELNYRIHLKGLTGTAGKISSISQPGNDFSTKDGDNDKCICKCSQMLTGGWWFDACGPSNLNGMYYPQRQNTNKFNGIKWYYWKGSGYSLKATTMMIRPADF
MEASUREMENT PROTOCOL: SPR, BIAcore T100, hAng2-His captured on anti-His CM5 chip, antibody flowed
Answer each item with its documented pKd.
Numbers only, as −log10 of the molar value.

Solved entries (count: 5):
SAIT-ANG-2-AB-4-C11 (IgG form) (antibody, V domains shown, Intact human antibody with human IgG1 constant region) VH: EVQLLESGGGLVQPGGSLRLSCAASGFTFSDYAMSWVRQAPGKGLEWVSSIYPDDGNTYYADSVKGRFTISRDNSKNTLYLQMNSLRAEDTAVYYCARHTSHHTSIDGYYYYGMDGWGQGTLVTVSS VL: QSVLTQPPSASGTPGQRVTISCTGSSSNIGNNDVSWYQQLPGTAPKLLIYSDSKRPSGVPDRFSGSKSGTSASLAISGLRSEDEADYYCGSWDYSLSGYVFGGGTKLTVLG: 9.23
SAIT-ANG-2-AB-8-A5 (IgG form) (antibody, V domains shown, Intact human antibody with human IgG1 constant region) VH: EVQLLESGGGLVQPGGSLRLSCAASGFTFSDYYMSWVRQAPGKGLEWVSGIYPSGGSTYYADSVKGRFTISRDNSKNTLYLQMNSLRAEDTAVYYCARDPSTLTYAGFDYWGQGTLVTVSS VL: QSVLTQPPSASGTPGQRVTISCSGSSSNIGNNYVTWYQQLPGTAPKLLIYADSHRPSGVPDRFSGSKSGTSASLAISGLRSEDEADYYCATWDYSLSGYVFGGGTKLTVLG: 10.13
SAIT-ANG-2-AB-4-F5 (IgG form) (antibody, V domains shown, Intact human antibody with human IgG1 constant region) VH: EVQLLESGGGLVQPGGSLRLSCAASGFTFSDYDMSWVRQAPGKGLEWVSSISHGDSNKYYADSVKGRFTISRDNSKNTLYLQMNSLRAEDTAVYYCAKSSGIQESPPTYYYYGMDVWGQGTLVTVSS VL: QSVLTQPPSASGTPGQRVTISCSGSSSNIGSNAVNWYQQLPGTAPKLLIYADSNRPSGVPDRFSGSKSGTSASLAISGLRSEDEADYYCGSWDYSLSGYVFGGGTKLTVLG: 9.23
SAIT-ANG-2-AB-4-F11 (IgG form) (antibody, V domains shown, Intact human antibody with human IgG1 constant region) VH: EVQLLESGGGLVQTGGSLRLSCAASGFTFSDYAMSWVRQAPGKGLEWVSSIYPDDGNTYYADSVKGRFTISRDNSKNTLYLQMNSLRAEDTAVYYCAKHPVRLNLHPMYYYYGMDVWGQGTLVTVSS VL: QSVLTQPPSASGTPGQRVTISCTGSSSNIGNNAVSWYQQLPGTAPKLLIYSDSQRPSGVPDRFSGSKSGTSASLAISGLRSEDEADYYCATWDYSLSAYVFGGGTKLTVLG: 9.36
SAIT-ANG-2-AB-3-D3 (IgG form) (antibody, V domains shown, Intact human antibody with human IgG1 constant region) VH: EVQLLESGGGLVQPGGSLRLSCAASGFTFSDYDMSWVRQAPGKGLEWVSGISSDDGNTYYADSVKGRFTISRDNSKNTLYLQMNSLRAEDTAVYYCARPTIDKYTLRGYYSYGMDVWGQGTLVTVSS VL: QSVLTQPPSASGTPGQRVTISCTGSSSNIGSNYVSWYQQLPGTAPKLLIYSDNKRPSGVPDRFSGSKSGTSASLAISGLRSEDEADYYCGTWDDSLNGYVFGGGTKLTVLG: 9.33

# context switch: different binder, same pKd
The value of pKd measured for the binder SAIT-ANG-2-AB-7-C9 (IgG form) (antibody, V domains shown, Intact human antibody with human IgG1 constant region) VH: EVQLLESGGGLVQPGGSLRLSCAASGFTFSNYAMSWVRQAPGKGLEWVSAISSGGGNIYYADSVKGRFTISRDNSKNTLYLQMNSLRAEDTAVYYCAKSGIQPSPPSMSSAYAMDVWGQGTLVTVSS VL: QSVLTQPPSASGTPGQRVTISCSGSSSNIGNNDVYWYQQLPGTAPKLLIYANSHRPSGVPDRFSGSKSGTSASLAISGLRSEDEADYYCGTWDYSLSGYVFGGGTKLTVLG turned out to be 9.69

src = patent US20150152192A1
